Target: T1, human neuropeptide Y2 receptor (human, UniProt P49146 1-381)
T1 sequence (looked up): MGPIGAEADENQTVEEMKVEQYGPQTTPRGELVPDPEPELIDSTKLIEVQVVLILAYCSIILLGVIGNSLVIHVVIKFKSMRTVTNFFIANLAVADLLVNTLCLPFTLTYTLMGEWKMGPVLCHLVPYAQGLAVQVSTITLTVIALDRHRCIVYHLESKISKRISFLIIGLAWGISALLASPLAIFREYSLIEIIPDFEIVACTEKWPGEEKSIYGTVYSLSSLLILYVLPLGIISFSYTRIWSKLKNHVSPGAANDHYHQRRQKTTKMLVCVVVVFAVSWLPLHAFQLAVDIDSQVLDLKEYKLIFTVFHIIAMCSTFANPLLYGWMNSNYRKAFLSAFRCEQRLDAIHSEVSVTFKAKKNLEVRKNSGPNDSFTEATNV
Assay: cell-based or functional assay
Starred links: 1 amine or outer side, 2 acyl side, 3 side chain; linkers in the order of their positions; H or OH if unused. Non-standard residues stand in square brackets, D forms with d. Groups on a side chain read outwards from the residue. No end group written: not given here. *: point of attachment. C18 diacid = O=C(O)CCCCCCCCCCCCCCCCC(=O)*; γGlu = O=C(O)[C@H](CCC(=O)[*:2])N[*:1]; AEEA = NCCOCCOCC(=O)O; Aib = CC(C)(N)C(=O)O
property-label: EC50 hNPY2R 100% hP (CreLuc) (nM)
Give the quantity in nM, number only.

Answered examples (3):
YXEGTFTSDYSIXLEKQAQXEFVEWLIKGGPSEGASLRHYYNWLTRQRY (Aib at 2, 13, 20; K28 side chain acylated with C20DA-gGlu-gGlu-gGlu-gGlu-gGlu-gGlu-eLys; C-terminal amide (NH2)) [Compound 275]	60
Y[Aib]EGTFTSDYSI[Aib]LEKQAQ[Aib]AFVEWLIKGGPEEGASLRHYYNWLTRQRY-NH2 (not fully specified (residue 28); also: TFA salt) [Compound 285]	48.8
Y[Aib]EGTFTSDYSI[Aib]LEKQAQ[Aib]EFVEWLIK([AEEA-γGlu-γGlu-γGlu-C18 diacid])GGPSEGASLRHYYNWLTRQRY-NH2 (also: TFA salt) [Compound 274]	74.6

Now examine the next entry.
Can you look up the measured EC50 hNPY2R 100% hP (CreLuc) of Y[Aib]EGTFTSDYSI[Aib]LEKQAQ[Aib]AFVEWLIKGGPSEGASLRHYYNWLTRQRY-NH2 (not fully specified (residue 28); also: TFA salt) [Compound 296] for me?
56.5
